pKi: −log10 of the molar value.
pKi, EP2 (Homo sapiens, UniProt P43116): measured values
Quantity: pKi

* COc1cc(CC2=C(C(=O)NCc3ccc(C(=O)O)cc3)CCCCC2)cc(OC)c1 | 5.56
* COc1cccc(CC2CCCCC2C(=O)NCc2ccc(C(=O)O)cc2)c1OC (single isomer, unassigned) [Example 16] | 5.39
* COc1ccc(OC)c(CC2=C(C(=O)NCc3ccc(C(=O)O)cc3)CCCC2)c1 | 6.39
* COc1cc(CC2CCCCC2C(=O)NCc2ccc(C(=O)O)cc2)cc(OC)c1 (single isomer, unassigned) | 5.67
* O=C(NCc1ccc(C(=O)O)cc1)C1=C(Cc2ccccc2Cl)CCCC1 | 7.08
* O=C(O)c1ccc(CNC(=O)C2CCCC2Cc2cccc(C(F)(F)F)c2)cc1 (single isomer, unassigned) [Example 6] | 6.13
* COc1cc(CC2=C(C(=O)NCc3ccc(C(=O)O)cc3)CCCC2)cc(OC)c1 | 6.75
* COc1cccc(CC2CCCCC2C(=O)NCc2ccc(C(=O)O)cc2)c1OC (single isomer, unassigned) [Example 15] | 5.13
* COc1cc(CC2CCCCCC2C(=O)NCc2ccc(C(=O)O)cc2)cc(OC)c1 (single isomer, unassigned) [Example 13] | 5.20
* COc1cccc(CC2CCCCC2C(=O)NCc2ccc(C(=O)O)cc2)c1 (single isomer, unassigned) | 5.63
* O=C(O)c1ccc(CNC(=O)C2CCCC2Cc2cccc(C(F)(F)F)c2)cc1 (single isomer, unassigned) [Example 5] | 6.81

---

- Experimental system: EP4 (Homo sapiens, UniProt P35408)
- Sequence (P35408 whole entry): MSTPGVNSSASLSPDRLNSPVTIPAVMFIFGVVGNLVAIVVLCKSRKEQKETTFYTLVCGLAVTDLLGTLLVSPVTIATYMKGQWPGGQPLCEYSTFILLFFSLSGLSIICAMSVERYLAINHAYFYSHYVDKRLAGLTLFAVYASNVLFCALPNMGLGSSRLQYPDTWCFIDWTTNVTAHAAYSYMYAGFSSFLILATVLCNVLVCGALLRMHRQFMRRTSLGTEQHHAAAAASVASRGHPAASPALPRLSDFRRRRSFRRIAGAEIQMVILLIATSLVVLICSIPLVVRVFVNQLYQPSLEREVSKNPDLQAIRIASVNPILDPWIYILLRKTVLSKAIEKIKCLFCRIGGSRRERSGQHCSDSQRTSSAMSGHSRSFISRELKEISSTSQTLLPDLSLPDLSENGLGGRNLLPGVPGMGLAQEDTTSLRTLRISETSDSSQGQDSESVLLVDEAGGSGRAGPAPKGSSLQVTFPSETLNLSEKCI
- Test name: cAMP assay, EP4
- Test parameters: HEK-EBNA cells expressing EP4
Quantity: EC50 (nM)

* COc1ccc(OC)c(CC2CCCCC2C(=O)NCc2ccc(C(=O)O)cc2)c1 (single isomer, unassigned) [Example 19] | 0.2
* COc1cc(CC2CCCC2C(=O)NCc2ccc(C(=O)O)cc2)cc(OC)c1 (single isomer, unassigned) | 9

---

- Experimental system: UniProt P43119
- Sequence (P43119 whole entry): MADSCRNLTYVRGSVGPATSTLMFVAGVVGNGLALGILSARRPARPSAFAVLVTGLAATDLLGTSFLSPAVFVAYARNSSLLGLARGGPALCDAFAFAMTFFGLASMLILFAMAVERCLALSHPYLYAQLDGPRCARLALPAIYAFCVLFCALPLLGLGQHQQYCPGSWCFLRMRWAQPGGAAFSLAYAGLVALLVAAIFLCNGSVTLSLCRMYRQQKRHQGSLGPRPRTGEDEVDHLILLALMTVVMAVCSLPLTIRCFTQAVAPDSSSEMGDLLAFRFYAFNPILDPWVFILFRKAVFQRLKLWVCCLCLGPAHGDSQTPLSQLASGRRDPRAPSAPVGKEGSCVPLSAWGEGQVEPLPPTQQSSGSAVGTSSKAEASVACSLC
- Test name: FLIPR calcium signal, hIP
- Test parameters: HEK-293(EBNA) cells; NA = no activity; read-out: Other Receptors EC50 hIP
This listing pairs compounds with measured EC50.
Quantity: EC50

* O=C(O)c1ccc(CNC(=O)C2CCCC2Cc2cccc(C(F)(F)F)c2)cc1 (single isomer, unassigned) | > 10 µM
* COc1cc(CC2=C(C(=O)NCc3ccc(C(=O)O)cc3)CCCCC2)cc(OC)c1 | > 10 µM

---

- Experimental system: EP4 (Homo sapiens)
- Test name: cAMP assay, EP4
- Test parameters: HEK-EBNA cells expressing EP4
Quantity: EC50

- COc1ccccc1CC1CCCCC1C(=O)NCc1ccc(C(=O)O)cc1 (single isomer, unassigned) [Example 32]: > 10 µM
- COc1ccccc1CC1CCCCC1C(=O)NCc1ccc(C(=O)O)cc1 (single isomer, unassigned) [Example 31]: > 10 µM
- COc1cc(CC2C3CCC(C3)C2C(=O)NCc2ccc(C(=O)O)cc2)cc(OC)c1 (stereo not shown) [Example 38]: > 10 µM
- COc1ccc(OC)c(CC2CCCCC2C(=O)NCc2ccc(C(=O)O)cc2)c1 (single isomer, unassigned) [Example 18]: > 10 µM
- COc1cccc(CC2CCCCC2C(=O)NCc2ccc(C(=O)O)cc2)c1 (single isomer, unassigned) [Example 28]: > 10 µM
- O=C(O)c1ccc(CNC(=O)C2CCCC2Cc2cccc(C(F)(F)F)c2)cc1 (single isomer, unassigned) [Example 5]: > 10 µM
- COc1cc(C/C2=C(\C(=O)NCc3ccc(C(=O)O)cc3)CCCCCC2)cc(OC)c1: > 10 µM

---

- Experimental system: EP4 (Homo sapiens, UniProt P35408)
pKi: −log10 of the molar value.
Binary call on pKi: rule met from 8 upward, rule not met beneath that.

- COc1ccccc1CC1CCCCC1C(=O)NCc1ccc(C(=O)O)cc1 (single isomer, unassigned): rule met
- COc1ccc(CC2CCCCC2C(=O)NCc2ccc(C(=O)O)cc2)cc1OC (single isomer, unassigned) [Example 22]: rule met
- COc1ccc(CC2CCCCC2C(=O)NCc2ccc(C(=O)O)cc2)cc1 (single isomer, unassigned) [Example 34]: rule not met

---

- Experimental system: EP4 (Homo sapiens)
- Test name: cAMP assay, EP4
- Test parameters: HEK-EBNA cells expressing EP4
This listing pairs compounds with measured EC50.
Quantity: EC50

• COc1cc(CC2=C(C(=O)NCc3ccc(C(=O)O)cc3)CCC2)cc(OC)c1 = 0.001 µM
• COc1ccccc1CC1=C(C(=O)NCc2ccc(C(=O)O)cc2)CCCC1 = > 10 µM
• COc1ccc(CC2=C(C(=O)NCc3ccc(C(=O)O)cc3)CCCC2)cc1OC = > 10 µM
• COc1cccc(CC2=C(C(=O)NCc3ccc(C(=O)O)cc3)CCCC2)c1 = > 10 µM
• COc1ccc(CC2CCCCC2C(=O)NCc2ccc(C(=O)O)cc2)cc1 (single isomer, unassigned) [Example 35] = > 10 µM
• COc1ccc(CC2=C(C(=O)NCc3ccc(C(=O)O)cc3)CCCC2)cc1 = > 10 µM
• COc1cccc(CC2CCCCC2C(=O)NCc2ccc(C(=O)O)cc2)c1OC (single isomer, unassigned) [Example 16] = > 10 µM
• COc1ccc(CC2CCCCC2C(=O)NCc2ccc(C(=O)O)cc2)cc1 (single isomer, unassigned) [Example 34] = > 10 µM
• COc1cc(CC2CCCCC2C(=O)NCc2ccc(C(=O)O)cc2)cc(OC)c1 (single isomer, unassigned) [Example 10] = 0.0002 µM
• COc1cccc(CC2CCCCC2C(=O)NCc2ccc(C(=O)O)cc2)c1 (single isomer, unassigned) [Example 29] = 0.004 µM
• COc1cc(CC2=C(C(=O)NCc3ccc(C(=O)O)cc3)CCCC2)cc(OC)c1 = 0.0002 µM
• COc1cc(/C=C2\[C@@H]3CC[C@@H](C3)[C@H]2C(=O)NCc2ccc(C(=O)O)cc2)cc(OC)c1 (racemic) = > 10 µM
• COc1ccc(CC2CCCCC2C(=O)NCc2ccc(C(=O)O)cc2)cc1OC (single isomer, unassigned) [Example 23] = > 10 µM
• COc1ccc(OC)c(CC2=C(C(=O)NCc3ccc(C(=O)O)cc3)CCCC2)c1 = > 10 µM
• COc1cccc(CC2CCCCC2C(=O)NCc2ccc(C(=O)O)cc2)c1OC (single isomer, unassigned) [Example 15] = > 10 µM
• O=C(O)c1ccc(CNC(=O)C2CCCCC2Cc2ccccc2)cc1 (single isomer, unassigned) [Example 26] = 0.035 µM
• COc1cc(CC2CCCCCC2C(=O)NCc2ccc(C(=O)O)cc2)cc(OC)c1 (single isomer, unassigned) [Example 12] = > 10 µM
• COc1cccc(CC2=C(C(=O)NCc3ccc(C(=O)O)cc3)CCCC2)c1OC = > 10 µM

---

- Experimental system: EP4 (Homo sapiens)
- Test name: Radioligand binding, EP4
- Parameters: expressed in transfected cells; membrane fraction
- Test parameters: [3H]PGE2 competition
Consider the cut-off 20 nM. If the recorded Ki is strictly smaller, the label is label 1; if not, the label is label 0.

- COc1cc(CC2=C(C(=O)NCc3ccc(C(=O)O)cc3)C3CCC2C3)cc(OC)c1 (stereo not drawn): label 0
- COc1ccc(OC)c(CC2=C(C(=O)NCc3ccc(C(=O)O)cc3)CCCC2)c1: label 1
- COc1cc(CC2CCCC2C(=O)NCc2ccc(C(=O)O)cc2)cc(OC)c1 (single isomer, unassigned): label 0
- COc1cccc(CC2CCCCC2C(=O)NCc2ccc(C(=O)O)cc2)c1 (single isomer, unassigned): label 1
- COc1ccc(CC2=C(C(=O)NCc3ccc(C(=O)O)cc3)CCCC2)cc1OC: label 1
- O=C(O)c1ccc(CNC(=O)C2CCCC2Cc2cccc(C(F)(F)F)c2)cc1 (single isomer, unassigned) [Example 6]: label 1
- COc1cccc(CC2CCCCC2C(=O)NCc2ccc(C(=O)O)cc2)c1OC (single isomer, unassigned): label 1
- O=C(O)c1ccc(CNC(=O)C2CCCC2Cc2cccc(C(F)(F)F)c2)cc1 (single isomer, unassigned) [Example 5]: label 1
- COc1cc(CC2CCCCCC2C(=O)NCc2ccc(C(=O)O)cc2)cc(OC)c1 (single isomer, unassigned): label 1
- COc1ccc(CC2CCCCC2C(=O)NCc2ccc(C(=O)O)cc2)cc1 (single isomer, unassigned) [Example 35]: label 0
- COc1cccc(CC2=C(C(=O)NCc3ccc(C(=O)O)cc3)CCCC2)c1OC: label 0
- COc1ccc(OC)c(CC2CCCCC2C(=O)NCc2ccc(C(=O)O)cc2)c1 (single isomer, unassigned): label 1
- COc1cc(CC2=C(C(=O)NCc3ccc(C(=O)O)cc3)CCCC2)cc(OC)c1: label 1
- O=C(O)c1ccc(CNC(=O)C2CCCCC2Cc2ccccc2)cc1 (single isomer, unassigned): label 0
- COc1cc(CC2C3CCC(C3)C2C(=O)NCc2ccc(C(=O)O)cc2)cc(OC)c1 (stereo not drawn): label 0
